Test system: PPARg DBDmut:RXRa IVT, anti-PPARg (DBD mutation: PPARg1 K132A/R137A, NR concentration 270 nM, RXRa partner concentration 90 nM)
Experiment: PBM binding z-score (relative to random genomic background probes); higher = stronger binding; sequences stand for … in GC…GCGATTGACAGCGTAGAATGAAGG
Please use Criterion met whenever PBM binding z-score is not below 0.9, and Criterion not met whenever it is.

-- ask Exam item: decide whether the reported PBM binding z-score for `CGAACTAGGTCATGGACAGTGAATCTCCGCACGC` is at least 0.9.
-- reply Criterion met

-- ask Say whether `ACTATTAGTTGTGACGAGGGCAACCGATAGGTTG` shows PBM binding z-score of 0.9 or more.
-- reply Criterion met

-- ask Evaluate `ATCTCTAGGTAAAGAAAGTTCAGTGAATGCAAAT` : PBM binding z-score at minimum 0.9?
-- reply Criterion met

-- ask Confirm if PBM binding z-score reported for the sequence `CCTACTGGGCCACGAAAGGTCATTGGTTCAGTGA` is 0.9 or above.
-- reply Criterion not met

-- ask Decide: PBM binding z-score of `GCTGCTAGGTCAGGTTGGTCAGCTAGCGGGTACG` >= 0.9?
-- reply Criterion not met

-- ask Entry `TCATATAGGTAAACAGGTCAAAGTCCGTAAGTTA` : is its PBM binding z-score no less than 0.9?
-- reply Criterion met

====

Tested on: THRa homodimer (NR concentration 90 nM)
Assay: PBM binding z-score (relative to random genomic background probes); higher = stronger binding; sequences stand for … in GC…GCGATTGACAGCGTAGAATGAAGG
Answer each item with its documented PBM binding z-score.
Give only the figure.

-- ask Entry `GCTCGTTGGTCAGTAAAAGGTCACACACCGGTCG` has what PBM binding z-score?
-- reply 2.35

-- ask Report PBM binding z-score for `CGTCCAAGGTCATAGGAGGTCAGTTAAGACAGAT` please.
-- reply 3

-- ask Report PBM binding z-score for `CGGACTAGGTCAAGGACAGTGAATCTCCGCACGC` please.
-- reply 2.06

====

Tested on: PPARg homodimer (NR concentration 180 nM)
Test: PBM binding z-score (relative to random genomic background probes); higher = stronger binding; sequences stand for … in GC…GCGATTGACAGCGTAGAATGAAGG
measured.endpoint: PBM binding z-score
Lab note: record just the number, no unit beside it.

-- ask Request the reported PBM binding z-score associated with `GCTGCTAGGTCAACTGATCGTCAGCTAAAGCTCG`
-- reply 0.899

-- ask I have this sequence here, `AATACAGGGTCGTCGTAGGCCAGAGTACGCACAG` , and I need its recorded PBM binding z-score.
-- reply 0.517

-- ask PBM binding z-score for `CGAACTAGGTCAGAACAGGACAGTCAAGGATGAT` ?
-- reply 0.7

-- ask # query: PBM binding z-score of entry `ATCGAAAAGTCGAGGTGAGTATAGAGAAAGGGAA`
-- reply 0.107

-- ask For `ACAGACAGGTGAGTGGAGGTAACTCAGCTGGACG` , what is its reported PBM binding z-score?
-- reply 0.425

-- ask Can you share its PBM binding z-score? I mean this sequence: `AGAATGAGGTTATGCGTAGATCAGGGAAGAAAGT`
-- reply 0.621

-- ask Which value of PBM binding z-score has been reported for `TCTCGGAGTACACGAAAGGTCAGAGCTCGACATC` in the records?
-- reply 1.29

====

System: PPARg:RXRa 90nM:30nM, anti-RXR (NR concentration 90 nM, RXRa partner concentration 30 nM)
Experiment: PBM binding z-score (relative to random genomic background probes); higher = stronger binding; sequences stand for … in GC…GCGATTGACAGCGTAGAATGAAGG
Kindly state PBM binding z-score for each of the entries shown.
Give the figure by itself; no unit, no explanation.

-- ask For the sequence shown here, `TAGCCTAGGTCATGCGCCAGTATACCACGCGAAC` , give the reported PBM binding z-score.
-- reply 1.89

-- ask May I ask what PBM binding z-score has been recorded for `TCGTGTAGATCAAAGGTTAAGAAAGCCGAAGCCT` ?
-- reply 6.62

-- ask For the sequence shown here, `CCTCGGAGGACAACAGCAGGTCAGAGCTGCCAGA` , give the reported PBM binding z-score.
-- reply -0.736

-- ask What value of PBM binding z-score has been recorded for this entry: `TGAATGAGGTTCTAAGATCAGGGAACGTTGCAAA`
-- reply 0.161

-- ask Could you tell me which PBM binding z-score is on file for `GCTGTTAGGTCAACTGATGGTCAGCTAAAGCTCG` ?
-- reply 1.61

-- ask Consider the sequence `TCGAGTAGGTTAGACGGGGCATTCAGCCAACATA` and give its measured PBM binding z-score.
-- reply 1.04

-- ask Bench note: what PBM binding z-score did `ATCGAAAGGTCGACGAGGTGAGTATTCACCGTTT` show?
-- reply 1.94

-- ask Quick one: PBM binding z-score for `TGAATGAGGTTAACGATCAGGGAACGTGGCGTCG` ?
-- reply 1.83

-- ask I would be grateful if you could share the reported PBM binding z-score for `ATCGAAAGGTCGAGGTGAGTAGAGAGAAAGGGAA` .
-- reply 2.36

-- ask Reported PBM binding z-score for `CCGACTGGGGCAAAGGGTACCATACTCAGTACGA` : what is it?
-- reply 8.88

-- ask Consider the sequence `CCTAGCAGGCCAGGGTCACTCTAGCATTTCGCTT` and give its measured PBM binding z-score.
-- reply -0.00564

-- ask Would you kindly share the measured PBM binding z-score for `CTCGAAAGGTCGGTTGAGGTGAGTAGACGGATAA` ?
-- reply 0.586

-- ask Query (sequence): `TCATATAGGAAATACAGGTGAAAGTCGGCATCTA` ; field requested: PBM binding z-score
-- reply 3.66

-- ask Given the entry `AGAACGAGGGCAATGAGTTAATAGCACGGGTGGC` , report its measured PBM binding z-score.
-- reply 0.528

-- ask What value of PBM binding z-score has been reported for the following sequence? `GCTGCTAGGTCAAGTGATGGTCAGCTAAAGCTCG`
-- reply 2.12

-- ask Field request: PBM binding z-score | item: `ATATGTAGGTTATCGGGACATTCAGTTTGCGCAT`
-- reply 3.45

-- ask What does the data say about its PBM binding z-score? Entry: `GATACAGGGTCAGTTAGAGGCCAGAGTATGGAAA`
-- reply 1.45

-- ask Query (sequence): `CTCGAAAGGTCGGTTGAGGTTAGTATACGGATAA` ; field requested: PBM binding z-score
-- reply 0.845

-- ask // lookup PBM binding z-score for `TCGAGGAGGTTAGTCGGGGCATTCAGCCAACATA`
-- reply 0.779

-- ask Recorded PBM binding z-score of `GCAGAGAGGTGAAACGCAGGTAACTCAGGGTGGC` , please.
-- reply -0.000796

-- ask I am curious: what PBM binding z-score value has been reported for `CCTAGTTGGTCATGAGGTCACACACCGGATATGA` ?
-- reply 3.46

-- ask Would you mind telling me what PBM binding z-score value was observed for `TCTATTAGTTTATTAGGGCAACCGAAACAGCGGA` ?
-- reply 3.33

-- ask Given the sequence `CGAACTAGGTCATTGACAGGATAGTGAATAGTAA` , what is its reported PBM binding z-score?
-- reply 5.85

-- ask Suppose we examine the sequence `CGTCCCAGGTCAATGCTAGGTCAGTGAAAGCATT` ; what PBM binding z-score value has been reported?
-- reply 1.97

-- ask PBM binding z-score for `AGAATGAGGTTATACGTAGTTCAGGGAAGAAAGT` ?
-- reply 1.49

-- ask Would you mind telling me what PBM binding z-score value was observed for `ACTATTAGTTGATACGAGGGCAACCGATAGGTTG` ?
-- reply 0.272

-- ask Which measured PBM binding z-score value corresponds to `TCGTATAGGTAAATGCTAGGTGAAAGTCCGATCT` ?
-- reply 2.54

-- ask Which measured PBM binding z-score value corresponds to `CGAACTAGGTCAGAACAGGACAATGAAGGATGAT` ?
-- reply 3.26

-- ask Please look up its PBM binding z-score: `TCTAGCAGGCTAGAGGGTCACTCAAGAGGTACGG`
-- reply 1.98

-- ask So what does the record say about PBM binding z-score for `TCGAGTAGGTTACCATTGGGGCATTCAGCTTTCT` ?
-- reply 1.17

-- ask Endpoint output: PBM binding z-score of `TAACCTAGGTCATGCGGGCCAGTATAGTGTCGGC` . Value?
-- reply 2.56

-- ask Sample `GCATATAGGTAATACAAGGTGAAATTCCGATTGT` — what was its PBM binding z-score?
-- reply 0.795

-- ask Consider the sequence shown here: `ATACCAAGGGGATCGTGAGGTCGTTGATACTAAC` What is its recorded PBM binding z-score?
-- reply -0.365

-- ask Query (sequence): `TCATATAGGTGAAGGTGAAAGTCGAACGATATGA` ; field requested: PBM binding z-score
-- reply 4.96

-- ask # PBM binding z-score lookup, item `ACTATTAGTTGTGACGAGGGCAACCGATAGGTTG`
-- reply 0.259

-- ask Request the reported PBM binding z-score associated with `CCTAGCAGGCCAGGATCACTCAAGCATTTCGCTT`
-- reply -0.909

-- ask // lookup PBM binding z-score for `ATATGTAGGTTATCGGGTCATTCCGTTTGCGCAT`
-- reply 5.6

-- ask Find the recorded PBM binding z-score belonging to `CCTAGCAAGCCAATCTGGGTCACTCAAGGCTTGA` and report it.
-- reply 0.994

-- ask Which PBM binding z-score reading was recorded for the sequence `CCAGACAGGTGTAAGGTAACTCAGTCTGGTACGC` ?
-- reply 0.409

-- ask Give its PBM binding z-score value. Item: `CGGCCAAGGTCAGCAGGTCAGTGAAAGCGACGTG`
-- reply 2.85

-- ask Value lookup for PBM binding z-score; key = `TCTCGGAGGACACGAACGGTCAGAGCTCGACATC`
-- reply 0.89

-- ask What does the record list as PBM binding z-score for `CGAACTAGGTTATTGACAGGACAGTGAATAGTAA` ?
-- reply 1.47

-- ask Entry `GCTATTAGTTGATAGGGCAACCGAATGATTCTCG` : reported PBM binding z-score = ?
-- reply 0.928

-- ask Sample `AGTCAAAGTTCAGGTCGAGGTAACGTAAAGCACG` — what was its PBM binding z-score?
-- reply 3.97

-- ask Would you mind telling me what PBM binding z-score value was observed for `CCAGACAGGTGGAAGGTAACTCAGTCTGGTACGC` ?
-- reply 0.663
